# procedure_text: PK of compound of Formula (Ia) after single intramuscular dose of solution formulations in Wistar Han rats
# Assay type: in vivo
# cond: Wistar Han, rat, plasma, intramuscular, 100 mg/kg, Solution H (~400 mg/mL); IM 100 mg/kg; Wistar Han rats; mean, n = 4; 1.00 h; read-out: Plasma concentration, Mean
metric_name: concentration at 1 h (nM)
Give bare numbers, in nM.

Ask: Which concentration at 1 h is reported for this compound? CC(C)(C#Cc1ccc(-c2ccc(Cl)c3c(NS(C)(=O)=O)nn(CC(F)(F)F)c23)c([C@H](Cc2cc(F)cc(F)c2)NC(=O)Cn2nc(C(F)(F)F)c3c2C(F)(F)[C@@H]2C[C@H]32)n1)S(C)(=O)=O [compound of Formula (Ia)]
Reply: 150

###

# procedure_text: PK of compound of Formula (Ia) after single subcutaneous dose of solution formulations in beagle dogs
# Assay type: in vivo
# cond: male, beagle, dog, plasma, sc, 12 mg/kg, beagle dogs, SC 12 mg/kg, 400 mg/mL solution Z (3.13% poloxamer 188), 1008 h, Mean n = 3
# Description: Formulations containing the compound of Formula (Ia), or a pharmaceutically acceptable salt thereof, were prepared as solutions and optionally administered subcutaneously or intramuscularly to rats, rabbits, and/or dogs. A solution of about 400 mg/mL of the compound of Formula (Ia) having 17.00 w/w % water, 36.40 w/w % PEG 300, 35.20 w/w % of a sodium salt of a compound of Formula (Ia), 5.00 w/w % ethanol, and 6.40 w/w % poloxamer 188 was prepared. […]
metric_name: concentration at 1008 h (nM)
Answers are plain numbers, in nM.

Ask: Which concentration at 1008 h is reported for this molecule? CC(C)(C#Cc1ccc(-c2ccc(Cl)c3c(NS(C)(=O)=O)nn(CC(F)(F)F)c23)c([C@H](Cc2cc(F)cc(F)c2)NC(=O)Cn2nc(C(F)(F)F)c3c2C(F)(F)[C@@H]2C[C@H]32)n1)S(C)(=O)=O
Reply: 79.9

###

# procedure_text: PK of compound of Formula (Ia) after single subcutaneous dose of solution formulations in beagle dogs
# Type: in vivo
# cond: male, beagle, dog, plasma, sc, 12 mg/kg, 1008 h; mean, n = 3 dogs; SC 12 mg/kg; solution U, 500 mg/mL
metric_name: concentration at 1008 h (nM)
Answers are plain numbers, in nM.

Ask: Which concentration at 1008 h is reported for this compound? CC(C)(C#Cc1ccc(-c2ccc(Cl)c3c(NS(C)(=O)=O)nn(CC(F)(F)F)c23)c([C@H](Cc2cc(F)cc(F)c2)NC(=O)Cn2nc(C(F)(F)F)c3c2C(F)(F)[C@@H]2C[C@H]32)n1)S(C)(=O)=O
Reply: 58.3

###

# procedure_text: PK of compound of Formula (Ia) after single subcutaneous dose of solution formulations in Wistar Han rats
# Format: in vivo
# cond: male, Wistar Han, rat, plasma, sc, 50 mg/kg, Wistar Han rats, SC 50 mg/kg, 500 mg/mL solution X (5.00% ethanol, 1.91% poloxamer 188), 3360 h, Mean n = 3
metric_name: concentration at 3360 h (nM)
Give bare numbers, in nM.

Ask: Which concentration at 3360 h is reported for this compound? CC(C)(C#Cc1ccc(-c2ccc(Cl)c3c(NS(C)(=O)=O)nn(CC(F)(F)F)c23)c([C@H](Cc2cc(F)cc(F)c2)NC(=O)Cn2nc(C(F)(F)F)c3c2C(F)(F)[C@@H]2C[C@H]32)n1)S(C)(=O)=O
Reply: 157

###

# procedure_text: PK of compound of Formula (Ia) after single subcutaneous dose of solution formulations in Wistar Han rats
# Format: in vivo
# cond: male, Wistar Han, rat, plasma, sc, 50 mg/kg, mean ± SD, n = 3 rats; SC 50 mg/kg; solution R, 400 mg/mL; read-out: AUC0-7392h
# Protocol: Formulations containing the compound of Formula (Ia), or a pharmaceutically acceptable salt thereof, were prepared as solutions and optionally administered subcutaneously or intramuscularly to rats, rabbits, and/or dogs. A solution of about 400 mg/mL of the compound of Formula (Ia) having 19.14 w/w % water, 40.66 w/w % PEG 300, 35.20 w/w % of a sodium salt of a compound of Formula (Ia), and 5.00% ethanol was prepared. […]
metric_name: AUC(0-t)

Ask: Which AUC(0-t) is reported for this molecule? CC(C)(C#Cc1ccc(-c2ccc(Cl)c3c(NS(C)(=O)=O)nn(CC(F)(F)F)c23)c([C@H](Cc2cc(F)cc(F)c2)NC(=O)Cn2nc(C(F)(F)F)c3c2C(F)(F)[C@@H]2C[C@H]32)n1)S(C)(=O)=O [compound of Formula (Ia)]
Reply: 1020 µM·h

###

# procedure_text: PK of compound of Formula (Ia) after single subcutaneous dose of solution formulations in beagle dogs
# Format: in vivo
# cond: male, beagle, dog, plasma, sc, 6 mg/kg, 2688 h; mean, n = 3 dogs; SC 6 mg/kg; solution V, 300 mg/mL
metric_name: concentration at 2688 h (nM)
Numbers only, in nM.

Ask: Which concentration at 2688 h is reported for this compound? CC(C)(C#Cc1ccc(-c2ccc(Cl)c3c(NS(C)(=O)=O)nn(CC(F)(F)F)c23)c([C@H](Cc2cc(F)cc(F)c2)NC(=O)Cn2nc(C(F)(F)F)c3c2C(F)(F)[C@@H]2C[C@H]32)n1)S(C)(=O)=O
Reply: 2.7

###

# procedure_text: PK of compound of Formula (Ia) after single subcutaneous dose of solution formulations in beagle dogs
# Type: in vivo
# cond: male, beagle, dog, plasma, sc, 12 mg/kg, beagle dogs, SC 12 mg/kg, 400 mg/mL solution Y (water, PEG 300), 168 h, animals #1-#3
metric_name: concentration at 168 h (nM)
Numbers only, in nM.

Ask: Which concentration at 168 h is reported for this molecule? CC(C)(C#Cc1ccc(-c2ccc(Cl)c3c(NS(C)(=O)=O)nn(CC(F)(F)F)c23)c([C@H](Cc2cc(F)cc(F)c2)NC(=O)Cn2nc(C(F)(F)F)c3c2C(F)(F)[C@@H]2C[C@H]32)n1)S(C)(=O)=O [compound of Formula (Ia)]
Reply: 41.2

###

# procedure_text: PK of compound of Formula (Ia) after single subcutaneous dose of solution formulations in Wistar Han rats
# Assay type: in vivo
# cond: male, Wistar Han, rat, plasma, sc, 50 mg/kg, Wistar Han rats, SC 50 mg/kg, 400 mg/mL solution Z (3.13% poloxamer 188), 72.0 h, Mean n = 4
metric_name: concentration at 72 h (nM)
Give bare numbers, in nM.

Ask: Which concentration at 72 h is reported for this compound? CC(C)(C#Cc1ccc(-c2ccc(Cl)c3c(NS(C)(=O)=O)nn(CC(F)(F)F)c23)c([C@H](Cc2cc(F)cc(F)c2)NC(=O)Cn2nc(C(F)(F)F)c3c2C(F)(F)[C@@H]2C[C@H]32)n1)S(C)(=O)=O
Reply: 163

###

# procedure_text: PK of compound of Formula (Ia) after single subcutaneous dose of solution formulations in Wistar Han rats
# Assay type: in vivo
# cond: male, Wistar Han, rat, plasma, sc, 50 mg/kg, 4704 h; mean, n = 3 rats; SC 50 mg/kg; solution S, 500 mg/mL
metric_name: concentration at 4704 h (nM)
One number for each entry, in nM.

Ask: Which concentration at 4704 h is reported for this compound? CC(C)(C#Cc1ccc(-c2ccc(Cl)c3c(NS(C)(=O)=O)nn(CC(F)(F)F)c23)c([C@H](Cc2cc(F)cc(F)c2)NC(=O)Cn2nc(C(F)(F)F)c3c2C(F)(F)[C@@H]2C[C@H]32)n1)S(C)(=O)=O
Reply: 71.5

###

# procedure_text: PK of compound of Formula (Ia) after single subcutaneous dose of solution formulations in Wistar Han rats
# Type: in vivo
# cond: male, Wistar Han, rat, plasma, sc, 50 mg/kg, Wistar Han rats, SC 50 mg/kg, 500 mg/mL solution X (5.00% ethanol, 1.91% poloxamer 188), 24.0 h, animals #1-#3
metric_name: concentration at 24 h (nM)
One number for each entry, in nM.

Ask: Which concentration at 24 h is reported for this compound? CC(C)(C#Cc1ccc(-c2ccc(Cl)c3c(NS(C)(=O)=O)nn(CC(F)(F)F)c23)c([C@H](Cc2cc(F)cc(F)c2)NC(=O)Cn2nc(C(F)(F)F)c3c2C(F)(F)[C@@H]2C[C@H]32)n1)S(C)(=O)=O [compound of Formula (Ia)]
Reply: 164

###

# procedure_text: PK of compound of Formula (Ia) after single subcutaneous dose of solution formulations in Wistar Han rats
# Assay type: in vivo
# cond: male, Wistar Han, rat, plasma, sc, 50 mg/kg, male Wistar Han rats, single SC 50 mg/kg, 400 mg/mL solution W (5.00% ethanol, 1.57% poloxamer 188), mean ± SD, n = 3; read-out: AUC0-1680 h
metric_name: AUC(0-t) (µM·h)
Numbers only, in µM·h.

Ask: Which AUC(0-t) is reported for this compound? CC(C)(C#Cc1ccc(-c2ccc(Cl)c3c(NS(C)(=O)=O)nn(CC(F)(F)F)c23)c([C@H](Cc2cc(F)cc(F)c2)NC(=O)Cn2nc(C(F)(F)F)c3c2C(F)(F)[C@@H]2C[C@H]32)n1)S(C)(=O)=O [compound of Formula (Ia)]
Reply: 401
